# Test system: SK-MEL-5
# Protocol Details: NCI tumour cell line growth inhibition, 48 h
Calls of active or inactive are those of the source. Rule as the data show it: active = GI50 up to about 1.1 µM and inactive = higher.
Listing of entries alongside the reported GI50.

Study these solved cases before continuing.
Record request: GI50 value, item O=C(OCC(Cl)(Cl)Cl)N1CC[C@H](C2CCCCC2)C1 14.9 µM (inactive)

Record request: GI50 value, item CCOC(=O)c1cc2cc(N(C(C)=O)C(C)=O)ccc2s1 20.7 µM (inactive)

Record request: GI50 value, item COc1cc(/C=C2\CCc3ccccc3C2=O)cc(OC)c1OC 12.6 µM (inactive)

Further cases:
Record request: GI50 value, item CC(=O)Oc1ccccc1C(=O)Nc1ncc([N+](=O)[O-])s1 [NITAZOXANIDE] 11.9 µM (inactive)

Record request: GI50 value, item BC(=O)NC(CC(C)C)C(=O)NCC(=O)NC1c2ccsc2C(=O)C1O.CN(C)C (stereo not given) > 100 µM (inactive)

From: ChEMBL document CHEMBL1201862
